assay: Compound was evaluated for its ability to displace [3H](+)-pentazocine from sigma receptor in Guinea pig brain
pKi: −log10 of the molar value.

| LINE NOTATION | pKi |
| --- | --- |
| c1ccc([C@]2(N3CCCCC3)CC[C@@H]3C[C@@H]32)cc1 | 5.14 |
| c1ccc([C@@]2(N3CCCCC3)CC[C@H]3C[C@H]32)cc1 | 5.95 |
| c1ccc([C@]2(N3CCCCC3)CC[C@H]3C[C@H]32)cc1 | 5.35 |
